target: full-length beta-Catenin (Uniprot ID P35222) (Homo sapiens); construct: 10 nM full-length beta-Catenin (Uniprot ID P35222); test: Fluorescence polarization IC50 (beta-catenin / 5FAM-TCF4 10-53 competition); type: binding; conditions: fluorescence polarization; read-out: beta-Catenin FP IC50
Measured metric: IC50 (µM)
State the answer as a number, implicitly in µM.

INSERT INTO assay_data (compound, measured_number) VALUES
  ('CC(=O)N1CCC[C@]12CC=CCCCC1(CCCC=CCCCOC(=O)N3CC[C@@](C(=O)N[C@@H](Cc4cscn4)C(=O)N[C@@H](Cc4csc5ccccc45)C(=O)N[C@@H](CCO)C(N)=O)(C3)NC(=O)[C@H](CC(N)=O)NC(=O)[C@H](Cc3ccccc3)NC(=O)[C@H](C)NC(=O)[C@H](CCCCNC(C)C)NC(=O)[C@H](CCC(N)=O)NC(=O)[C@H](CC(=O)O)NC1=O)NC(=O)[C@H](CC1CCCCC1)NC(=O)[C@H](CC(N)=O)NC2=O (some centres unmarked) [I-2071]', 0.592),
  ('CC(=O)N1CCC[C@]12CC=CCCCC1(CCCC=CCCCOC(=O)N3CC[C@@](C(=O)N[C@@H](Cc4ccsc4)C(=O)N[C@@H](Cc4csc5ccccc45)C(=O)N[C@H](C)C(N)=O)(C3)NC(=O)[C@H](CC(C)C)NC(=O)[C@H](Cc3ccccc3)NC(=O)[C@@H](C)NC(=O)[C@H](C)NC(=O)[C@H](Cc3cccc(C(=O)O)c3)NC(=O)[C@H](CC(=O)O)NC1=O)NC(=O)[C@H](CC(C)(C)C)NC(=O)[C@H](CC(=O)O)NC2=O (some centres unmarked) [I-2100]', 0.086),
  ('CC(=O)N1CCC[C@]12CC=CCCCC1(CCCC=CCCCCCC[C@@](C)(C(=O)N[C@@H](Cc3cccc(F)c3)C(=O)N[C@@H](Cc3csc4ccccc34)C(=O)N[C@@H](CCC(N)=O)C(N)=O)NC(=O)[C@H](C(C)C)NC(=O)[C@H](Cc3ccccc3)NC(=O)[C@H](C)NC(=O)[C@H](C)NC(=O)[C@H](Cc3c[nH]cn3)NC(=O)[C@H](CC(=O)O)NC1=O)NC(=O)[C@H](C)NC(=O)[C@H](CC(=O)O)NC2=O (some centres unmarked) [I-396]', 3.43);

Entry under test: CC(=O)N1CCC[C@]12CC=CCCCC1(CCCC=CCCCOC(=O)N3CC[C@@](C(=O)N[C@@H](Cc4ccsc4)C(=O)N[C@@H](Cc4c[nH]c5ccccc45)C(=O)N[C@@H](CCC(N)=O)C(N)=O)(C3)NC(=O)[C@H](CC(N)=O)NC(=O)[C@H](Cc3ccccc3)NC(=O)[C@H](C)NC(=O)[C@H](C)NC(=O)[C@H]([C@@H](C)O)NC(=O)[C@H](CC(N)=O)NC1=O)NC(=O)[C@H](CC(C)(C)C)NC(=O)[C@H](CC(=O)O)NC2=O (some centres unmarked) [I-1877] . Its IC50 was 1.52

Lab note: measured IC50 of CC(=O)N1CCC[C@H]1C(=O)N[C@@H](CC(=O)O)C(=O)N[C@@H](CC(C)(C)C)C(=O)N[C@]1(C)CCCC=CCCCOC(=O)N2CC[C@@](C(=O)N[C@@H](Cc3ccsc3)C(=O)N[C@@H](Cc3csc4ccccc34)C(=O)N[C@@H](CCC(N)=O)C(N)=O)(C2)NC(=O)[C@H](CC(N)=O)NC(=O)[C@H](Cc2ccccc2)NC(=O)[C@H](C)NC(=O)[C@H](C)NC(=O)[C@H](CC(=O)O)NC(=O)[C@H](CC(=O)O)NC1=O [I-1182] was 0.144

Recorded result, CC(=O)N1CCC[C@]12CC=CCCCC1(CCCC=CCCCCCC[C@@](C)(C(=O)N[C@@H](Cc3ccccc3)C(=O)N[C@@H](Cc3csc4ccccc34)C(N)=O)NC(=O)[C@H](CC(N)=O)NC(=O)[C@H](Cc3ccccc3)NC(=O)[C@H](C)NC(=O)[C@H](C)NC(=O)[C@H](CCC(=O)O)NC(=O)[C@H](CC(=O)O)NC1=O)NC(=O)[C@H](CC(C)(C)C)NC(=O)[C@H](CC(=O)O)NC2=O (some centres unmarked) [I-713] , IC50: 0.07

// CC[C@H](C)[C@@H]1NC(=O)[C@H](CC(=O)O)NC(=O)[C@]2(CC=CCCCC3(CCCC=CCCCCCC[C@@](C)(C(=O)N[C@@H](Cc4ccccc4)C(=O)N[C@@H](Cc4csc5ccccc45)C(=O)N[C@@H](CCC(N)=O)C(N)=O)NC(=O)[C@H](CC(N)=O)NC(=O)[C@H](Cc4ccccc4)NC(=O)[C@H](C)NC(=O)[C@H](C)NC(=O)[C@H](CC(=O)O)NC(=O)[C@H](CC(=O)O)NC3=O)NC1=O)CCCN2C(C)=O (some centres unmarked) [I-467] : IC50 value = 0.044

What the record says about CC(=O)N1CCC[C@]12CC=CCCCC1(CCCC=CCCCOC(=O)N3CC[C@@](C(=O)N[C@@H](Cc4ccccc4Cl)C(=O)N[C@@H](Cc4csc5ccccc45)C(=O)N[C@@H](C(N)=O)[C@H](C)O)(C3)NC(=O)[C@H](CO)NC(=O)[C@H](Cc3ccccc3)NC(=O)[C@H](C)NC(=O)[C@H](C)NC(=O)[C@H](CC(=O)O)NC(=O)[C@H](CC(=O)O)NC1=O)NC(=O)[C@H](Cc1ccccc1)NC(=O)[C@H](CC(=O)O)NC2=O (some centres unmarked) [I-1142] : IC50 is 0.022

###

assay: Solubility in PBS; type: physicochemical
Solubility overview
Provide the reading as a plain figure in µM.

INSERT INTO assay_data (molecule, measured_metric, measured_number) VALUES
  ('CC(=O)N1CCC[C@]12CC=CCCCC1(CCCC=CCCCCCC[C@@](C)(C(=O)N[C@@H](Cc3ccccc3Cl)C(=O)N[C@@H](Cc3csc4ccccc34)C(=O)N[C@@H](CCC(N)=O)C(N)=O)NC(=O)[C@H](CC(N)=O)NC(=O)[C@H](Cc3ccccc3)NC(=O)[C@H](C)NC(=O)[C@H](C)NC(=O)[C@H](CCC(=O)O)NC(=O)[C@H](CC(=O)O)NC1=O)NC(=O)[C@H](C)NC(=O)[C@H](CC(=O)O)NC2=O (stereo partly shown)', 'Solubility', 50);

Short answer for CC(=O)N1CCC[C@]12CC=CCCCC1(CCCC=CCCCOC(=O)N3CC[C@@](C(=O)N[C@@H](Cc4ccsc4)C(=O)N[C@@H](Cc4csc5ccccc45)C(=O)N[C@@H](CCC(N)=O)C(N)=O)(C3)NC(=O)[C@H](CC(C)C)NC(=O)[C@H](Cc3ccccc3)NC(=O)[C@H](C)NC(=O)[C@H](C)NC(=O)[C@H](CC(=O)O)NC(=O)[C@H](CC(=O)O)NC1=O)NC(=O)[C@H](CC(C)(C)C)NC(=O)[C@H](CC(=O)O)NC2=O (stereo partly shown) : Solubility was 50

So, CC(=O)N1CCC[C@]12CC=CCCCC1(CCCC=CCCCCCC[C@@](C)(C(=O)N[C@@H](Cc3ccccc3)C(=O)N[C@@H](Cc3csc4ccccc34)C(=O)N[C@@H](CCO)C(N)=O)NC(=O)[C@H](CCC(N)=O)NC(=O)[C@H](Cc3ccccc3)NC(=O)[C@H](C)NC(=O)[C@H](C)NC(=O)[C@H](CCC(=O)O)NC(=O)[C@H](CC(=O)O)NC1=O)NC(=O)[C@H](C)NC(=O)[C@H](CC(=O)O)NC2=O (stereo partly shown) [I-492] ? Its Solubility was 49

// CC(=O)N1CCC[C@]12CC=CCCCC1(CCCC=CCCCCCC[C@@](C)(C(=O)N[C@@H](Cc3ccccc3Cl)C(=O)N[C@@H](Cc3csc4ccccc34)C(=O)N[C@@H](CCO)C(N)=O)NC(=O)[C@H](CC(C)C)NC(=O)[C@H](Cc3ccccc3)NC(=O)[C@H](C)NC(=O)[C@H](C)NC(=O)[C@H](CC(=O)O)NC(=O)[C@H](CC(=O)O)NC1=O)NC(=O)[C@H](CC(C)(C)C)NC(=O)[C@H](CC(=O)O)NC2=O (stereo partly shown) : Solubility value = 10

###

target: full-length beta-Catenin (Uniprot ID P35222) (Homo sapiens, UniProt P35222); construct: 10 nM full-length beta-Catenin (Uniprot ID P35222); test: Fluorescence polarization IC50 (beta-catenin / 5FAM-TCF4 10-53 competition); format: binding; conditions: fluorescence polarization; read-out: beta-Catenin FP IC50
Sequence (P35222 whole entry): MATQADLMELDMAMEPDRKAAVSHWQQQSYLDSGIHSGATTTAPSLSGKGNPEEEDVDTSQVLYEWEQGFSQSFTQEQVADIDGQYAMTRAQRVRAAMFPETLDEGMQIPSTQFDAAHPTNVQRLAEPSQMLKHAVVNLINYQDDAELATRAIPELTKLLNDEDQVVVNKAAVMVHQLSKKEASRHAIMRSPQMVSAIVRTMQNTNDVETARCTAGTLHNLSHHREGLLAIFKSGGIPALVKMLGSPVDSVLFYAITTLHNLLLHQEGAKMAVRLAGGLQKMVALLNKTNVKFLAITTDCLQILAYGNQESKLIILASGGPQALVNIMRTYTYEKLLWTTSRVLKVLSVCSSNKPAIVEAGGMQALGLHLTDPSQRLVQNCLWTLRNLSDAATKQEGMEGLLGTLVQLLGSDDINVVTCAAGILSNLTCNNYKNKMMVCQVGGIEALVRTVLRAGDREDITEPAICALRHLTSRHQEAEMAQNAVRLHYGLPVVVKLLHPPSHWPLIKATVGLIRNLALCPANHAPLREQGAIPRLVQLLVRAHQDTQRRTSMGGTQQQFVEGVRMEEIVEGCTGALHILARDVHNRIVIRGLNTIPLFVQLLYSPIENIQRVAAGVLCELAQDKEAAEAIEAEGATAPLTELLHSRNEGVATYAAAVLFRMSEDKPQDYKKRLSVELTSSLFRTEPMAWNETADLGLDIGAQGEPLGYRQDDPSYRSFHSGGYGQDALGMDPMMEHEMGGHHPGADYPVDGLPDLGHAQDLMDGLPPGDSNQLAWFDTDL
Measured metric: IC50 (nM)
The reply should be a number in nM, with the unit left off.

Guide cases for IC50, answers given:
INSERT INTO measurements (molecule, measured_metric, measured_number) VALUES
  ('CC(=O)N1CCC[C@]12CC=CCCCC1(CCCC=CCCCOC(=O)N3CC[C@@](C(=O)N[C@@H](Cc4ccsc4)C(=O)N[C@@H](Cc4csc5ccccc45)C(=O)N[C@@H](CCC(N)=O)C(N)=O)(C3)NC(=O)[C@H](CC(C)C)NC(=O)[C@H](Cc3ccccc3)NC(=O)[C@H](CCCCNC(=O)C34CC5(C)CC(C)(CC(C)(C5)C3)C4)NC(=O)[C@H](C)NC(=O)[C@H](CC(=O)O)NC(=O)[C@H](CC(=O)O)NC1=O)NC(=O)[C@H](CC(C)(C)C)NC(=O)[C@H](CC(=O)O)NC2=O (stereo partly drawn)', 'IC50', 113),
  ('CC(=O)N1CCC[C@]12CC=CCCCC1(CCCC=CCCCOC(=O)N3CC[C@@](C(=O)N[C@@H](Cc4ccsc4)C(=O)N[C@@H](Cc4c[nH]c5cccc(Cl)c45)C(=O)N[C@@H](CCC(N)=O)C(N)=O)(C3)NC(=O)[C@H](CC(N)=O)NC(=O)[C@H](Cc3ccccc3)NC(=O)[C@H](C)NC(=O)[C@H](C)NC(=O)[C@H](CC(=O)O)NC(=O)[C@H](CC(=O)O)NC1=O)NC(=O)[C@H](CC(C)(C)C)NC(=O)[C@H](CC(=O)O)NC2=O (stereo partly drawn)', 'IC50', 87);

We now examine a further molecule.
Consider CC(=O)N1CCC[C@]12CC=CCCCC1(CCCC=CCCCOC(=O)N3CC[C@@](C(=O)N[C@@H](Cc4ccccc4Cl)C(=O)N[C@@H](Cc4csc5ccccc45)C(=O)N[C@@H](CCC(N)=O)C(N)=O)(C3)NC(=O)[C@H]([C@@H](C)O)NC(=O)[C@H](Cc3ccccc3)NC(=O)[C@H](C)NC(=O)[C@H](C)NC(=O)[C@H]([C@@H](C)O)NC(=O)[C@H](CC(=O)O)NC1=O)NC(=O)[C@H](CC1CCCCC1)NC(=O)[C@H](CC(=O)O)NC2=O (stereo partly drawn) . Its measured IC50 is 24
